target: T1, activated Protein C (APC) (human, UniProt P04070 43-197; P04070 212-461); test: pseudo-first-order inhibition kinetics (repeated from Table 1)
T1 construct: also called human plasma APC
T1 sequence (P04070 43-197, chain 1 of 2): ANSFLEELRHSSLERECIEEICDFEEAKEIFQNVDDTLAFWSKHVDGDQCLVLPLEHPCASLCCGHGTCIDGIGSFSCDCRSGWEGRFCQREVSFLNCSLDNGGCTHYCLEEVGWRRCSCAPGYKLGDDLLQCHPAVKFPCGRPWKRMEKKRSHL
T1 sequence (P04070 212-461, chain 2 of 2): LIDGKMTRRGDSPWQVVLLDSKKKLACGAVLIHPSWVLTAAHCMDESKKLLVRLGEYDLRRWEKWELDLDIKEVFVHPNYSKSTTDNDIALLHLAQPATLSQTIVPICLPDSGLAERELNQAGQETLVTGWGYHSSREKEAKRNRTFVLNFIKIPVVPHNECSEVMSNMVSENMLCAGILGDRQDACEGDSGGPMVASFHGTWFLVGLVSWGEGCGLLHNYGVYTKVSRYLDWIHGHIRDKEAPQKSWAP

[
  {
    "Binder": "A22 P2KP1′K PCI (other, As A22 WT PCI) APSSRRDFTFDLYRALASAAPSQNIFFSPVSISMSLAMLSLGAGSSTKMQILEGLGLNLQKSSEKELHRGFQQLLQELNQPRDGFQLSLGNALFTDLVVDLQDTFVSAMKTLYLADTFPTNFRDSAGAMKQINDYVAKQTKGKIVDLLKNLDSNAVVIMVNYIFFKAKWETSFNHKGTQEQDFYVTSETVVRVPMMSREDQYHYLLDRNLSCRVVGVPYQGNATALFILPSEGKMQQVENGLSEKTLRKWLKMFKKRQLELYLPKFSIEGSYQLEKVLPSLGISNVFTSHADLSGISNHSNIQVSEMVHKAVVEVDESGTRAAAATGTIFTKRKARLNSQRLVFNRPFLMFIVDNNILFLGKVNRP",
    "second-order rate constant of inhibition": "280 M⁻¹ s⁻¹"
  }
]

The values you see were collected from patent US20160311887A1.
